Tested on: Saccharomyces cerevisiae;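 further: PSI is a weighted mean of sequencing reads over stability bins, variants kept only with over 10 reads, mCherry proximal and sfGFP distal, peptide attached via GGGS linker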
Assay: protein stability index of tFT-peptide fusion (C-terminal peptide) (PSI (0-1 scale)); higher = more stable (slower turnover)
Conditions: genetic background: wild type; temperature: 30 C
Measurement Kind: protein stability index
Please reply with the value in numeric form only.

Examples with answers:
[[record]]
residue_sequence = "LKFLFTYLGFLS"
measurement_kind = "protein stability index"
test_result = 0.532

[[record]]
residue_sequence = "FFFFSFFLATFS"
measurement_kind = "protein stability index"
test_result = 0.305

[[record]]
residue_sequence = "GAVQGVALRGGS"
measurement_kind = "protein stability index"
test_result = 0.744

[[record]]
residue_sequence = "LVLERKVDSKRK"
measurement_kind = "protein stability index"
test_result = 0.761

[[record]]
residue_sequence = "VRYGSHRNMSLL"
measurement_kind = "protein stability index"
test_result = 0.819


Pending sequence:
Ask: Give Saccharomyces cerevisiae protein stability index for SHTAWEQRVPKQ
Reply: 0.729

Origin of values: the supplement of paper PMC10724198
